# Lookup of reported Kd keyed by entry
Target: T1, human ST2L (human, UniProt Q01638 19-328, limits assumed)
T1 construct: also called IL-1R4; IL-33Ra
T1 sequence (looked up): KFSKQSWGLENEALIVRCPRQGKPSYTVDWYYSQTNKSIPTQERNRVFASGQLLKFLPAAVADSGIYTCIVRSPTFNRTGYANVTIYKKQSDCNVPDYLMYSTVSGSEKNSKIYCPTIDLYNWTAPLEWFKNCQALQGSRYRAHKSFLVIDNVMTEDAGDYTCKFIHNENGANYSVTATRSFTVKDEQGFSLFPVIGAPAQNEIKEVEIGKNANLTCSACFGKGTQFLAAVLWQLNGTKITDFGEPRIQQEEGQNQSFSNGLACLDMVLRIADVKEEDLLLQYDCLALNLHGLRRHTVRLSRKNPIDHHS
Assay: affinity table; method not stated
Unit nM implied. Number only.

STLM227 (antibody, from another filing, V domains shown) VH: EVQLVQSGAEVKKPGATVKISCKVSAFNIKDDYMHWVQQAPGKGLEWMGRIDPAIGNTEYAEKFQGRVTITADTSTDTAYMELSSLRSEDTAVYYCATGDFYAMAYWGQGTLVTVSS VL: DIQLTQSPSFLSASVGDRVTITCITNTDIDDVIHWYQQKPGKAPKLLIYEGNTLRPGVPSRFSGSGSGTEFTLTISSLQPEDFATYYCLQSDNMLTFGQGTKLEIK ... 0.064
STLM222 (antibody, from another filing, V domains shown) VH: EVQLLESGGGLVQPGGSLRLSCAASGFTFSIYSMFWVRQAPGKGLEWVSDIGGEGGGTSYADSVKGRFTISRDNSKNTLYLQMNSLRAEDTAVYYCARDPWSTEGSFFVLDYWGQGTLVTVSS VL: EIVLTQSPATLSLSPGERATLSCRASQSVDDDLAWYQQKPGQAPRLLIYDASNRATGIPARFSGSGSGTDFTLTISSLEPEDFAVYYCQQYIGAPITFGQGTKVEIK ... 0.037

Continue with the binder presented below.
Problem: Look at this binder and give its reported Kd. STLM212 (antibody, from another filing, V domains shown) VH: EVQLLESGGGLVQPGGSLRLSCAASGFTFSVYDMIWVRQAPGKGLEWVSTIRGEGGGTYYADSVKGRFTISRDNSKNTLYLQMNSLRAEDTAVYYCARDPWSTEGSFFVLDYWGQGTLVTVSS VL: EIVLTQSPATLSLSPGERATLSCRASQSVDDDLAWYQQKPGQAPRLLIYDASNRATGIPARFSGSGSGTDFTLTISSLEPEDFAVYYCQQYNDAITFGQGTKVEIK
Solution: 0.032
